TESTED SYSTEM: EGFR mutant Del19/T790M (Homo sapiens, UniProt P00533, DEL746-750/T790M)
Construct: truncated human JAK3, EGFR mutants such as del E746-A750; purchased Carna Biosciences
Sequence (P00533 with tags, fused parts or gaps DEL746-750/T790M limits assumed): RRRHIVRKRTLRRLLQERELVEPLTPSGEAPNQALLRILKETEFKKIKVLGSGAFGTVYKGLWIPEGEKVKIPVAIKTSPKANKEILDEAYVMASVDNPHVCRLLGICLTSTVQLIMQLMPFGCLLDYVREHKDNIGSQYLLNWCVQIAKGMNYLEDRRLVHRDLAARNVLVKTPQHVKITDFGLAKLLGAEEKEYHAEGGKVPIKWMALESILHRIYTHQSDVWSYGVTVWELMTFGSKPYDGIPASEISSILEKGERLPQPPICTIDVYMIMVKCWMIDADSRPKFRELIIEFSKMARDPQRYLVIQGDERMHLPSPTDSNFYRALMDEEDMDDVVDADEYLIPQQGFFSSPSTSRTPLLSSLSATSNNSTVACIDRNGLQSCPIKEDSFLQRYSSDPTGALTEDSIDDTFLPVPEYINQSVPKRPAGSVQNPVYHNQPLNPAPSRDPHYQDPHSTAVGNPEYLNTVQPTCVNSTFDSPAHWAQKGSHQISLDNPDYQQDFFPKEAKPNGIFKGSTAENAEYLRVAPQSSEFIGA
ASSAY PROTOCOL: Kinase inhibition assay, EGFR del E746-A750/T790M
Assay type: biochemical
TEST PARAMETERS: read-out: EGFR mutants Del19/T790M
pIC50: −log10 of the molar value.
Measured pIC50, listed per entry for reference.

*Q* Return reported pIC50; argument: "C=CC(=O)Nc1cc(Nc2nccc(-n3cc(CN(C)C)c(-c4ccccc4)n3)n2)c(OC)cc1N(C)CCOC"
*A* > 7.70

*Q* What value of pIC50 has been reported for the following compound? "C=CC(=O)Nc1cc(Nc2nccc(-n3cc(CN4CCCC4)c(-c4ccccc4)n3)n2)c(OC)cc1N1CCOCC1"
*A* > 7.70

*Q* Which pIC50 value belongs to "C=CC(=O)Nc1cc(Nc2ncc(C)c(-n3cc(CN4CCOCC4)cn3)n2)c(OC)cc1N1CCN(C)CC1" ?
*A* > 7.70

*Q* Which pIC50 value is on record for "C=CC(=O)Nc1cc(Nc2nccc(-n3cc(CN(C)C)c(C(C)(C)C)n3)n2)c(OC)cc1N(C)CCOC" ?
*A* > 7.70

*Q* Fill blank: measured pIC50 of the compound "C=CC(=O)Nc1cc(Nc2nccc(-n3cc(CN(C)C)c(-c4ccccc4)n3)n2)c(OC)cc1N1CCOCC1" is ____.
*A* > 7.70

// switching to the query compound
*Q* Can you look up the measured pIC50 of "C=CC(=O)Nc1cc(Nc2ncc(C)c(-n3cc(CN4CCC4)cn3)n2)c(OC)cc1N1CCN(C(C)=O)CC1" for me?
*A* > 7.70

###

TESTED SYSTEM: EGFR mutant L858R/T790M (Homo sapiens, UniProt P00533, L858R/T790M)
Construct: truncated human JAK3, EGFR mutants such as del E746-A750; purchased Carna Biosciences
Sequence (P00533 669-1210 T790M/L858R limits assumed): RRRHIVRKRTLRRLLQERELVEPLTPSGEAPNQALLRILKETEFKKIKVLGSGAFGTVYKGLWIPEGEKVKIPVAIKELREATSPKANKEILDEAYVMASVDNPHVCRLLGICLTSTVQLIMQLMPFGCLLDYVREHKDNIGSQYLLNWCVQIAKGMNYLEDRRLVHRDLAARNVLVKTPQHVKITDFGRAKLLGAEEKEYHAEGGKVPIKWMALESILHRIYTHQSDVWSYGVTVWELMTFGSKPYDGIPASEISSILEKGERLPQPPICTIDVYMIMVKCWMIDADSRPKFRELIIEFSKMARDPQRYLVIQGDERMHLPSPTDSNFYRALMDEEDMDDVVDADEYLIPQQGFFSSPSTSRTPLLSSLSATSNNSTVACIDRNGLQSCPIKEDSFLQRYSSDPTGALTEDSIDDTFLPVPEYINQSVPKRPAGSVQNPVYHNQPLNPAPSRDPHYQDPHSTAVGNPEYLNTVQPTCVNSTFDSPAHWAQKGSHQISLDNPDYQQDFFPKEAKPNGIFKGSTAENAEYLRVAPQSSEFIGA
ASSAY PROTOCOL: Kinase inhibition assay, EGFR L858R/T790M;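 note: truncated human enzyme preincubated two hours with compound, then one hour with one millimolar ATP and ULight-PolyGT peptide, Europium-labeled antibody detection, IC50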
Type: biochemical
TEST PARAMETERS: read-out: EGFR mutants L858R/T790M
Recorded measurements of IC50, one per entry

*Q* Return IC50 measured with EGFR mutant L858R/T790M (Homo sapiens, UniProt P00533, L858R/T790M) given this compound: "C=CC(=O)Nc1cc(Nc2nccc(-n3cc(CN4CCC4)c(C4CC4)n3)n2)c(OC)cc1N1CCOCC1"
*A* < 20 nM

*Q* Please state recorded IC50 (tested on EGFR mutant L858R/T790M (Homo sapiens, UniProt P00533, L858R/T790M)) of "C=CC(=O)Nc1cc(Nc2nccc(-n3cc(CN4CCC4)cn3)n2)c(OC)cc1N(C)C"
*A* < 20 nM

*Q* Find IC50 (EGFR mutant L858R/T790M (Homo sapiens, UniProt P00533, L858R/T790M)) for the entry "C=CC(=O)Nc1cc(Nc2nccc(-n3cc(CN4CCC4)c(-c4ccccc4)n3)n2)c(OC)cc1N1CCOCC1"
*A* < 20 nM

*Q* Value wanted: IC50 (EGFR mutant L858R/T790M (Homo sapiens, UniProt P00533, L858R/T790M)) of entry "C=CC(=O)Nc1cc(Nc2nccc(-n3cc(CN4CCC4)cn3)n2)c(OC)cc1N1CCOCC1"
*A* < 20 nM
